assay: soluble fraction after stress (log2 fold change); higher = more stays soluble; pooled small domains, quantitative proteomics; details: stress: pH 4
Exercise: state measured soluble fraction (log2) for each of the sequences provided.
The answer should be a number; do not append a unit.

State the recorded soluble fraction (log2) for this entry: "HMTVKRNLVQEILRLKFRHPENFMPNRAFYQEVGINQMRWWDIFYGRKNINQEEYIALSKYF"
-0.352

Given the entry "HMESAVDVFRSILKEKGVTEEEVRQVVAARGKYTLETPIDDYPNEFLYGYVIRYWDQIFDIIQQSREAK" , report its measured soluble fraction (log2).
-1.57

What does the record list as soluble fraction (log2) for "HMVIMDLIVNGEPKYVVGEQLHLILDELGYSGKHFVVELNGEILSKEAYTTTKLTAADRLEIVSFVGG" ?
-1.72

Sample "HMNPNSIDEKLKLLSNREKEVAILVLKKLSYFEISEQLNITIRTVKAHTKNIYEKFNVSNRLAFLLLFN" — what was its soluble fraction (log2)?
-0.209
